- STUDY_SYSTEM: T1, recombinant human Trop-2-his protein (ACCESSION NO.: NP_002344.2, AA 1-274) (human, UniProt P09758 27-274)
- T1 construct: range 27-274; also called recombinant human Trop-2 protein; recombinant human Trop-2 extracellular domain; not shown: his tag
- T1 sequence (looked up): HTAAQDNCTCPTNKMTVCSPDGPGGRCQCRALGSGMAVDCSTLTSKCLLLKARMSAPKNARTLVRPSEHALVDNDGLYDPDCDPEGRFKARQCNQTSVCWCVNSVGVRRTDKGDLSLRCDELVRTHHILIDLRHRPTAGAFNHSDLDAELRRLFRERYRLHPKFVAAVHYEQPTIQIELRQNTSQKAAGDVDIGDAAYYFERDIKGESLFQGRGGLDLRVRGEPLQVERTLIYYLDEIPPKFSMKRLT
- ASSAY_TEXT: BLI, antibody on AHC sensor, Trop-2-his 60 nM
Reported pKd by item:
Please report pKd as the negative decimal logarithm of the molar concentration, giving only the number.

These recorded examples may help you get a feel for the data.
{"BINDER": "h11-4-6 (antibody, human IgG1, kappa, name in Kabat numbering, V domains shown) VH: QVQLVQSGAEVKKPGASVKVSCKASGYTFTSYWINWVRQAPGQGLEWMGNIYPSNSYTNYNQKFKDRVTMTRDTSTSTVYMELSSLRSEDTAVYYCSRYRSDGFAYWGQGTLVTVSS VL: EIVLTQSPATLSLSPGERATLSCRASQNIGTSIHWYQQKPGQAPRLLIEFASESISGIPARFSGSGSGTDFTLTISSLEPEDFAVYYCQQSNSWPFTFGGGTKVEIKR", "pKd": 9.02}
{"BINDER": "h11-4-10 (antibody, human IgG1, kappa, name in Kabat numbering, V domains shown) VH: EVQLVQSGAEVKKPGASVKVSCKASGYTFTSYWINWVRQAPGQGLEWMGNIYPSNSYTNYNQKFKDRVTMTRDTSTSTVYMELSSLRSEDTAVYYCSSYRSEGFAYWGQGTLVTVSS VL: EIVLTQSPATLSLSPGERATLSCRASQNIGTSIEWYQQKPGQAPRLLIEFASESISGIPARFSGSGSGTDFTLTISSLEPEDFAVYYCQQSNSWPFTFGGGTKVEIKR", "pKd": 9.45}
{"BINDER": "h11-4-17 (antibody, human IgG1, kappa, name in Kabat numbering, V domains shown) VH: EVQLVQSGAEVKKPGASVKVSCKASGYTFTSYWINWVRQAPGQGLEWMGNIYPSNSYTNYNQKFKDRVTMTRDTSTSTVYMELSSLRSEDTAVYYCSSYRSDGFAYWGQGTLVTVSS VL: EIVLTQSPATLSLSPGERATLSCRASQNIGTSIAWYQQKPGQAPRLLIEFASESISGIPARFSGSGSGTDFTLTISSLEPEDFAVYYCQQSNSWPFTFGGGTKVEIKR", "pKd": 9.62}
{"BINDER": "h11-4-16 (antibody, human IgG1, kappa, name in Kabat numbering, V domains shown) VH: EVQLVQSGAEVKKPGASVKVSCKASGYTFTSYWINWVRQAPGQGLEWMGNIYPSNSYTNYNQKFKDRVTMTRDTSTSTVYMELSSLRSEDTAVYYCSSYRSDAFAYWGQGTLVTVSS VL: EIVLTQSPATLSLSPGERATLSCRASQNIGTSISWYQQKPGQAPRLLIEFASESISGIPARFSGSGSGTDFTLTISSLEPEDFAVYYCQQSNSWPFTFGGGTKVEIKR", "pKd": 9.64}
{"BINDER": "h11-4-20 (antibody, human IgG1, kappa, name in Kabat numbering, V domains shown) VH: EVQLVQSGAEVKKPGASVKVSCKASGYTFTSYWINWVRQAPGQGLEWMGNIYPSNSYTNYNQKFKDRVTMTRDTSTSTVYMELSSLRSEDTAVYYCSSYRSDAFAYWGQGTLVTVSS VL: EIVLTQSPATLSLSPGERATLSCRASQNIGTSIAWYQQKPGQAPRLLIEFASESISGIPARFSGSGSGTDFTLTISSLEPEDFAVYYCQQSNSWPFTFGGGTKVEIKR", "pKd": 9.68}
{"BINDER": "h11-4-19 (antibody, human IgG1, kappa, name in Kabat numbering, V domains shown) VH: EVQLVQSGAEVKKPGASVKVSCKASGYTFTSYWINWVRQAPGQGLEWMGNIYPSNSYTNYNQKFKDRVTMTRDTSTSTVYMELSSLRSEDTAVYYCSSYRSGGFAYWGQGTLVTVSS VL: EIVLTQSPATLSLSPGERATLSCRASQNIGTSIAWYQQKPGQAPRLLIEFASESISGIPARFSGSGSGTDFTLTISSLEPEDFAVYYCQQSNSWPFTFGGGTKVEIKR", "pKd": 9.60}

Query: What pKd value was documented for this binder, h11-4-12 (antibody, human IgG1, kappa, name in Kabat numbering, V domains shown) VH: EVQLVQSGAEVKKPGASVKVSCKASGYTFTSYWINWVRQAPGQGLEWMGNIYPSNSYTNYNQKFKDRVTMTRDTSTSTVYMELSSLRSEDTAVYYCSSYRSDAFAYWGQGTLVTVSS VL: EIVLTQSPATLSLSPGERATLSCRASQNIGTSIEWYQQKPGQAPRLLIEFASESISGIPARFSGSGSGTDFTLTISSLEPEDFAVYYCQQSNSWPFTFGGGTKVEIKR ?
Reply: 9.55
